Biological target: Inadl_8, Q8NI35
Sequence (Q8NI35 1425-1530): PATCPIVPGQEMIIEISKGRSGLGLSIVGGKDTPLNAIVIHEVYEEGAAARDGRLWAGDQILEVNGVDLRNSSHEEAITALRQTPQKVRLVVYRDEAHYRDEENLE
Assay: holdup assay
Parameters: key: below the threshold = too weak to quantify, mostly under pKd 3.1 to 4
Conditions: plain residues with an end cap or a label only (N-terminal biotin on a linker: ahx)
Recorded measurements of pKd, one per entry
Output: the number by itself.

Solved entries (count: 2):
AKPQPVDSWV [ARVCF, O00192]	3.87
KDECVIATEV [DLL1, O00548]	3.64

Exercise: Note pKd for the binder shown: YNSFLSVTTV [PDZRN3, Q9UPQ7]
Solution: 4.3
